- System: RXF 393 renal
- Test Method Notes: NCI tumour cell line growth inhibition, 48 h; in the data active = GI50 below about 0.43 µM; inactive = the rest
Respond only with the outcome that fits, drawn from true (1) = active, false (0) = inactive

**Query** What did this assay record as the result for COc1ccc(C(O)c2cc3c(N)c(C(=O)Nc4ccccc4)sc3nc2C)cc1 (stereo not given) ?
**Result** true (1)

**Query** What did this assay record as the result for O=C1c2ccccc2S(=O)(=O)N1CSC(=S)N1CCOCC1 ?
**Result** false (0)

**Query** What did this assay record as the result for Cn1cc(C2=C(n3ccc4ccccc43)C(=O)NC2=O)c2ccccc21 ?
**Result** false (0)

**Query** What did this assay record as the result for CCCCCN1C(=O)/C(=c2\sc3n(c2=O)C2C(NN=3)N(CC)C(=O)N2CC)c2ccccc21 (stereo not given) ?
**Result** false (0)

**Query** What did this assay record as the result for CCNCCNc1cc(-c2ccc(Cl)c(Cl)c2)c(C#N)c2nc3ccccc3n12 ?
**Result** false (0)
